Where do the numbers come from? From paper PMC6114103.

# System: B. caballi (USDA strain)
# assay: in vitro multiplication inhibition assay (SYBR Green I fluorescence, 96 h), single drugs and two-drug combinations
# Format: cell-based, Babesia caballi
# experimental context: B. caballi, 96 h, triplicate, mean ± SD; read-out: IC50 on in vitro culture of parasites
# Procedure: Babesia parasite cultures were maintained using a microaerophilic stationary-phase culture system ([Levy and Ristic, 1980]; [Avarzed et al., 1997]; [Igarashi et al., 1998]). […] The assays were conducted in accordance with the protocol described previously with modification ([Guswanto et al., 2014]). […] The fluorescence data were subtracted from the negative control and used to calculate the IC50. […]
reported property: IC50 (nM)
Numeric answer only, unit nM assumed.

Prompt line: Dear colleague, I am looking for the recorded IC50 of the following compound: CC(=O)NCC(=O)O.CC(=O)NCC(=O)O.N=C(N)c1ccc(N=NNc2ccc(C(=N)N)cc2)cc1 [DA, diminazene aceturate]
Response line: 13.4
